Kb listing for selected compounds.
# Species: Oryctolagus cuniculus
# MEASUREMENT PROTOCOL: Antagonism of AII-contracted rabbit aortic rings
# Assay type: functional, organism-based, Aorta
# PROTOCOL CONDITIONS: Oryctolagus cuniculus, Aorta; read-out: pA2 (converted)

COMPOUND	Kb / µM
CCCCc1nc(CCCC)n(Cc2ccc(-c3ccccc3-c3nn[nH]n3)cc2)n1	0.002
CCCCc1nc(Cc2ccc(-c3ccccc3-c3nn[nH]n3)cc2)n(CCCC)n1	0.00316
CCCCc1nc(Cc2ccc(-c3ccccc3C(=O)O)cc2)n(CCCC)n1	0.0794
CCCCc1nc(Cc2ccc(-c3ccccc3-c3nn[nH]n3)cc2)nn1CCCC	10
CCCCc1nc(C(O)c2ccc(-c3ccccc3-c3nn[nH]n3)cc2)n(CCCC)n1 (configuration not stated)	0.251
CCCCn1nc(C(F)(F)CCC)nc1Cc1ccc(-c2ccccc2-c2nn[nH]n2)cc1	0.01
CCCCn1nc(CCc2ccccc2)nc1Cc1ccc(-c2ccccc2-c2nn[nH]n2)cc1	0.0126
